All figures here come from patent US11214803B2.

Would you kindly list YAP1 (% UTC) for each of these substances?
System: Yap1 mRNA
assay-info: Antisense inhibition of human Yap1 in A-431 cells by cEt gapmers, single dose (Example 2, RTS4814)
Format: cell-based
experimental-conditions: Table 19; A-431 cells, 5,000 cells per well, free uptake, 2,000 nM modified oligonucleotide, approx. 48 hours; RTS4814; normalized to RIBOGREEN; Yap1 mRNA as percent of untreated control
Strand notation (5' to 3'): a small letter for the sugar, then the base; units joined by * are phosphorothioate-linked, units joined directly phosphodiester-linked; [ ] holds rarer units or linkages, { } end groups; capitals alone tell only the bases. k = constrained ethyl (cEt); [5mC] = 5-methylcytosine; d = 2'-deoxy (DNA)
Give bare numbers, in % UTC.

1075909 (kA*kA*kA*dT*dA*dA*dG*dG*dA*dG*dT*dA*dG*kG*kT*kG; antisense) [Compound 1075909] | 93
1075845 (kG*kT*kG*dG*dA*dA*dA*dA*dG*dT*dA*dT*dG*kA*kT*k[5mC]; antisense) [Compound 1075845] | 19
1074565 (antisense kA*k[5mC]*kT*dG*dA*dA*dT*dT*d[5mC]*d[5mC]*dA*dA*dT*k[5mC]*kG*kA) [Compound 1074565] | 5

Need YAP1 (% UTC) for each of these substances.
1. 958499 (kA*kT*kT*dA*dG*dA*dG*dT*dA*dT*dG*dT*dG*kG*k[5mC]*kA) [Compound 958499]
2. 1076421 (kA*kA*kT*dT*dA*dT*dG*dA*d[5mC]*d[5mC]*dT*d[5mC]*d[5mC]*kA*kT*kG; antisense) [Compound 1076421]
3. 1075621 (kG*kA*kT*dT*dA*dA*d[5mC]*dA*dT*dT*dG*dA*dT*kA*k[5mC]*kT; antisense) [Compound 1075621]
4. 1076517 (antisense k[5mC]*kA*kT*dA*dA*dT*dA*dA*dG*dA*d[5mC]*dT*dA*kA*kA*k[5mC]) [Compound 1076517]
5. 1076197 (kT*kA*kT*dT*dA*dT*d[5mC]*dA*dA*dG*dG*dG*dA*kA*kT*kT; antisense) [Compound 1076197]

-- reply
1: 2; 2: 65; 3: 61; 4: 102; 5: 94

---

Test system: Yap1 mRNA
assay-info: Antisense inhibition of human Yap1 in A-431 cells by cEt gapmers, single dose (Example 3, RTS36584)
Format: cell-based
experimental-conditions: Table 27; Yap1 mRNA by 3-10-3 cEt gapmers targeting SEQ ID NO.: 1, and 2; percent of untreated control
Strand notation (5' to 3'): a small letter for the sugar, then the base; units joined by * are phosphorothioate-linked, units joined directly phosphodiester-linked; [ ] holds rarer units or linkages, { } end groups; capitals alone tell only the bases. k = constrained ethyl (cEt); [5mC] = 5-methylcytosine; d = 2'-deoxy (DNA)
value-type: YAP1 (% UTC)
Answers are plain numbers, in % UTC.

Field: example entries. Status: answers known.
1075053 (antisense kA*kA*kT*dA*dT*dA*dT*dA*d[5mC]*dT*dT*dG*dA*kT*k[5mC]*k[5mC]) [compound 1075053] | 4
1074381 (kA*kG*kT*d[5mC]*dT*dG*dG*dG*dA*dA*dA*d[5mC]*dG*kG*kT*kT; antisense) [compound 1074381] | 16

Quick batch: YAP1 (% UTC) for everything below.
1. 1074733 (kG*k[5mC]*k[5mC]*dA*dG*dG*dT*dA*dT*d[5mC]*dA*d[5mC]*dA*kG*kT*kA; antisense) [compound 1074733]
2. 1076461 (kG*kA*kT*dT*dA*dA*dT*dA*dT*dA*dG*d[5mC]*d[5mC]*k[5mC]*k[5mC]*kT; antisense) [compound 1076461]
3. 1075501 (k[5mC]*kA*kT*dA*dA*dA*dT*dT*dA*dA*dG*d[5mC]*d[5mC]*kA*kA*k[5mC]; antisense) [compound 1075501]
4. 1076141 (kT*kA*k[5mC]*dG*dA*dA*dA*dA*dA*dA*dG*d[5mC]*d[5mC]*kA*kA*k[5mC]; antisense) [compound 1076141]

-- reply
47
3
67
29

---

Test system: Yap1 mRNA
assay-info: Dose-dependent inhibition of human Yap1 in A-431 cells (Example 8, 10,000 cells per well, RTS4814)
Assay type: cell-based
experimental-conditions: 500.0 nM; A-431 cells, 10,000 cells per well, free uptake, approximately 48 hours, RTS4814
Strand notation (5' to 3'): a small letter for the sugar, then the base; units joined by * are phosphorothioate-linked, units joined directly phosphodiester-linked; [ ] holds rarer units or linkages, { } end groups; capitals alone tell only the bases. k = constrained ethyl (cEt); [5mC] = 5-methylcytosine; d = 2'-deoxy (DNA)
Rule: Yap1 mRNA, % UTC of 10 % UTC or more gives Met; anything lower gives Not met.

1076298 (kG*kT*kT*dA*dT*dA*dA*dA*dG*dA*d[5mC]*d[5mC]*d[5mC]*kA*kA*kT; antisense) [compound 1076298] | Met
1074638 (antisense kA*kG*kA*dT*dT*dT*dT*dG*dT*dA*dA*dT*dT*kG*kG*kG) [compound 1074638] | Not met
1076466 (kA*kT*kT*dT*dA*dG*dA*dG*d[5mC]*dT*dT*dA*dA*kG*kG*kA; antisense) [compound 1076466] | Not met
1076367 (antisense k[5mC]*kT*kA*dT*dT*dT*dA*d[5mC]*dA*dT*dG*dA*dG*kA*kG*kG) [compound 1076367] | Not met
1076526 (kG*kT*kA*dG*dA*dA*dA*dG*dA*dT*dG*dG*d[5mC]*kT*k[5mC]*kA; antisense) [compound 1076526] | Not met

-- ask State whether the measured Yap1 mRNA, % UTC reaches 10 % UTC, counting equality as reaching it, for 1076483 (kA*k[5mC]*kG*dG*dG*dA*dA*dA*dT*d[5mC]*dA*dT*dA*kT*kA*kG; antisense) [compound 1076483]
-- reply Met

-- ask I'd appreciate it if you could say whether 1074479 (k[5mC]*kA*kT*dT*dT*dG*d[5mC]*d[5mC]*dT*dA*dG*dG*dT*kT*k[5mC]*k[5mC]; antisense) [compound 1074479] has Yap1 mRNA, % UTC at least equal to 10 % UTC.
-- reply Not met

-- ask Hi, just wondering whether 1074313 (antisense kT*kG*kA*dT*dA*dT*dT*d[5mC]*d[5mC]*dG*d[5mC]*dA*dT*kT*kG*k[5mC]) [compound 1074313] shows Yap1 mRNA, % UTC of 10 % UTC or higher.
-- reply Not met

-- ask Evaluate 1076552 (kA*kT*kG*dT*dA*dT*dA*dA*dA*dT*dA*d[5mC]*d[5mC]*kA*kG*kG; antisense) [compound 1076552] : Yap1 mRNA, % UTC at minimum 10 % UTC?
-- reply Met

-- ask Is Yap1 mRNA, % UTC for 1075465 (antisense kG*kA*kT*dT*dT*dA*dT*dT*dG*dA*dA*d[5mC]*dT*kG*kA*kG) [compound 1075465] at or above 10 % UTC?
-- reply Met

-- ask Is Yap1 mRNA, % UTC at least 10 % UTC? Consider 1076256 (kT*kT*kA*dT*dT*dT*dA*dG*dG*d[5mC]*d[5mC]*d[5mC]*d[5mC]*kA*kT*kA; antisense) [compound 1076256]
-- reply Met

-- ask Please indicate if the recorded Yap1 mRNA, % UTC for 1074609 (DNA k[5mC]*kT*kA*dG*dT*dT*dA*d[5mC]*dA*dT*d[5mC]*dA*dT*k[5mC]*kT*k[5mC]) [compound 1074609] meets or exceeds 10 % UTC.
-- reply Met

---

Consider the following substances; for each one, report its IC50.
Test system: Yap1 mRNA
assay-info: Dose-dependent inhibition of human Yap1 in SNU-449 cells (Example 9, RTS36584)
Type: cell-based
experimental-conditions: free uptake, linear regression on a log/linear plot
Strand notation (5' to 3'): a small letter for the sugar, then the base; units joined by * are phosphorothioate-linked, units joined directly phosphodiester-linked; [ ] holds rarer units or linkages, { } end groups; capitals alone tell only the bases. e = 2'-O-(2-methoxyethyl) (MOE); k = constrained ethyl (cEt); [5mC] = 5-methylcytosine; d = 2'-deoxy (DNA); m = 2'-O-methyl
One number for each entry, in µM.

Record IC50 per entry; entries follow.
1. 1198553 (kT*kA*kG*dA*dG*dT*dA*dT*dG*dT*dG*dG*k[5mC]*kA*kA*eT; antisense) [compound 1198553]
2. 1198917 (k[5mC]*kA*d[5mC]*dT*dT*dT*dT*dA*d[5mC]*dA*dT*kT*dA*kG*dG*kA; antisense) [compound 1198917]

-- reply
0.1
0.1

Batch: IC50 for all items listed.
1. 1197215 (kA*kA*kG*dT*dG*dT*dA*dT*dG*dT*d[5mC]*dA*dG*kA*kA*kG) [compound 1197215]
2. 1198818 (kT*kA*dT*dT*dA*dG*dA*dG*dT*dA*dT*kG*eT*kG*eG*k[5mC]) [compound 1198818]
3. 1200798 (kT*kA*kT*dT*dA*mG*dA*dG*dT*dA*dT*dG*dT*kG*kG*k[5mC]; antisense) [compound 1200798]
4. 1198641 (kA*kT*dT*dA*dG*dA*dG*dT*dA*dT*dG*dT*kG*eG*k[5mC]*eA; antisense) [compound 1198641]
5. 1198961 (kA*kA*dA*dG*dT*dG*dT*dA*dT*dG*dT*k[5mC]*dA*kG*dA*kA; antisense) [compound 1198961]

-- reply
1. 0.04
2. 0.1
3. 0.1
4. 0.03
5. 0.1

Quick batch: IC50 for everything below.
1. 1198799 (k[5mC]*eT*kA*dA*dG*dT*dA*dA*dG*dG*dT*dT*eT*e[5mC]*k[5mC]*k[5mC]; antisense) [compound 1198799]
2. 1198786 (kT*eG*kT*dA*dT*dG*dT*d[5mC]*dA*dG*dA*dA*eG*eA*kG*kT) [compound 1198786]
3. 1198525 (kA*kG*dT*dG*dT*dA*dT*dG*dT*d[5mC]*dA*eG*kA*eA*kG*eA) [compound 1198525]
4. 1200797 (kA*kT*kT*dA*dG*mA*dG*dT*dA*dT*dG*dT*dG*kG*k[5mC]*kA; antisense) [compound 1200797]
5. 1198787 (kA*eG*kT*dG*dT*dA*dT*dG*dT*d[5mC]*dA*dG*eA*eA*kG*kA; antisense) [compound 1198787]
6. 1198960 (kA*kA*dG*dT*dG*dT*dA*dT*dG*dT*d[5mC]*kA*dG*kA*dA*kG; antisense) [compound 1198960]
7. 1197214 (kA*kG*kT*dG*dT*dA*dT*dG*dT*d[5mC]*dA*dG*dA*kA*kG*kA; antisense) [compound 1197214]

-- reply
[0.1, 0.1, 0.04, 0.2, 0.05, 0.1, 0.1]
